Readings of P3_MyD88 Rank (after) for the listed sequences
target: MyD88^TIR (Homo sapiens, UniProt Q99836); construct: MyD88 (residues 148–296); 6xHis; made in house; host or cells: E. coli BL21 (DE3); assay: T‐Surf phage library (P8 and P3) selection against MyD88^TIR, four rounds, NGS read counts; assay type: binding; conditions: P3 library, selection against MyD88, rank after grouping
Sequence (Q99836 148-296): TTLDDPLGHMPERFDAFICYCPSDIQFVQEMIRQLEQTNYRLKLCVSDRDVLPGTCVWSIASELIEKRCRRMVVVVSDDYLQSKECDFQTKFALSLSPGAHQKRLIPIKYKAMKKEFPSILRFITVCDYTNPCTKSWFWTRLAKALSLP
Give only the figure.

Record excerpt, results attached:
INSERT INTO assay_data (item_sequence, numeric_value) VALUES
  ('PSEVRKQTGSLAKALCD', 488),
  ('SEKYAKSPWAKVGLVL', 548),
  ('KQWRNALTAEANLSGW', 557),
  ('SSFREGMWRLMVLSKK', 562);

Req: Find the recorded P3_MyD88 Rank (after) belonging to `SELREVVGGAVSQLVM` and report it.
Resp: 575

Req: Find the recorded P3_MyD88 Rank (after) belonging to `SSFREGLWRLLELSQN` and report it.
Resp: 544
